- Measured Target: T1, CD137 antigen (Octet antigen binding assay) (UniProt Q07011 24-186, limits assumed)
- T1 construct: also called 4-1BB; TNFRSF9
- Method Description: BLI, Octet Red 96, antibody on anti-human Fc (AHC) biosensors, 1:1 model
Metric: Kd (nM)
Note: unit nM is implicit; provide only the numeric part.

## Task Using the record for LYV375 (22F2-IgG4) (antibody, V domains shown, Chimeric antibody, human IgG4 S228P / human kappa; also called 22F2 in human IgG4SP / human Kappa) VH: EVKLVESGAELVRPGSSVKISCKASGYAFSLYWMNWVKQRPGQGLEWIGQIYPGDGYTNYNGKFKGKATLTADKSSSTAYMQLSSLTSEDSAVYFCARGQLGLDGYWGQGTTLTVSS VL: QIVLTQSPAIMSASPGEKVTMTCSASSSVSYIYWYQQKPGSSPRLLIYDTSNLASGVPVRFSGSGSGTSYSLTISRMEAEDAATYYCQQWNIYPYTFGGGTKLEIKR , report its Kd.
## Result 8.2

## Task Another binder: LYV371 (11E10-IgG4) (antibody, V domains shown, Chimeric antibody, human IgG4 S228P / human kappa; also called 11E10 in human IgG4SP / human Kappa) VH: QVQLQQSGAELVRPGASVTLSCKASGYTFAGFEMHWIKQTPVHGLGWIGAIDPKTGGTDYNQKFKDKALLTADKSSNTAYMELRSLTSEDSAVYYCTRDLGYFDVWGTGTTVTVSS VL: DIQMTQTTSSLSASLGDRVTISCRASQDIRSNLNWYQQKPDGTVKLLIYYTSRLHSGVPSRFSGSGSGTDYSLTISNLEQEDIATYFCQQSEKLPRTFGGGTKLEIRR
## Result 3.8

## Task # iterate: LYV370 (20A12-IgG4) (antibody, V domains shown, Chimeric antibody: hybridoma variable domains on human IgG4 constant region with hinge S228P (EU numbering) and human kappa constant region; S228P is already in the full chain entry; also called 20A12 in human IgG4SP / human kappa) VH: QIQLVQSGPELKKPGETVKISCKASGYTFTTYGMSWVKQAPGKGLKWMGWINTYSGVPTYADDFKGRFAFSLETSASTAYLQINNLKNEDMAIYFCARGYGSPDYWGQGTTLTVSS VL: QIVLTQSPAIMSASPGEKVTMTCSASSSVSYMNWYQQKSGTSPKRWIFDTSKLASGVPARFSGSGSGTSYSLTISSMEAEDAATYYCQQWSGNPPISTFGSGTKLEIKR
## Result 5.7
